- method.summary: amyloid nucleation score (Sup35N fusion, yeast selection) (log enrichment); library NNK2; higher = more nucleation; inactive = no reads after selection;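 note: zero at mode of non-aggregating sequences after 7 days selection at 30°C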
attribute.measured: amyloid nucleation score
One number for each entry.

Provide each entry's amyloid nucleation score from the list below.
1. TTHLLFLFLALKNNPRTILT
2. VRKGCLTRACWRGCECMQGG
3. RYFSISAFMVMGTVNVGGYW

Response line:
1. -0.294
2. 2.03
3. 4.18

Provide each entry's amyloid nucleation score from the list below.
1. TSVYPRGYFPVSCACYFLLE
2. GVCLSGACAGISGGADYSGR

Response line:
-1.3
0.332

Provide each entry's amyloid nucleation score from the list below.
1. SCAIELLVQNNSEHLRLITI
2. RIRVVPKWSFISNRRNCGKL

Response line:
1: -0.266; 2: 4.25

====

Please respond with reported amyloid nucleation score for every item in the list.
- method.summary: amyloid nucleation score (Sup35N fusion, yeast selection) (log enrichment); library NNK1; higher = more nucleation; inactive = no reads after selection
One number for each entry.

Example entries and their recorded answers appear below.
substance	numeric.result
YHNGDYCCVQFTTGSWVVRW	0.391
GFYIDDYES	-1.39
LHNYLLCTRVNRIDVLRMTL	-0.854
TIKMDTQVLVYIRKRNKYCW	-0.746
RWSETR	0.998
DFAYMSVLWIVVMLRGFLVK	0.639
RIDYWVIPGAWNSTCWRYTT	1.49
TPSIYRNVCDIEGLLSSRYL	0.36
TNSFSSSLRMV	0.076
LRFMCRYFLRQRNYEPWFYG	0.1

Provide each entry's amyloid nucleation score from the list below.
1. TETQECVSRYVILGGGAGVS
2. MRASTFNYSYELKINVVCYT
3. HYSHAWTVSRLMWNRDERGA
4. SNQTLPWYK
5. FSMGQQMFVLVLSCFLVLWC

Response line:
0.271
-0.918
1.59
0.043
0.832

Provide each entry's amyloid nucleation score from the list below.
1. KERIFPLTTEAMKLERKA
2. LLAVAGPLLWLYRYMISFIS
3. RMQVKDLVDQVKTTFKCTHT
4. NFCFTVFLEVNAVKMRIYF
5. RRGFVAHLFLVLTVVCNLNS
6. DASIIPYMNMFIMLTSLA
7. CRSGYRFLRRRAGLTVMR
8. HYTFKDCSSPLSWEPQPLFP

Response line:
1. -0.341
2. 0.071
3. 0.303
4. -0.798
5. 7.2
6. -0.889
7. -0.413
8. -0.32

====

- method.summary: amyloid nucleation score (Sup35N fusion, yeast selection) (log enrichment); library NNK3; higher = more nucleation; inactive = no reads after selection
attribute.measured: amyloid nucleation score

Example entries and their recorded answers appear below.
sequence	attribute.measured	result
FYIYWLFPIIVSFDYVFSGL	amyloid nucleation score	inactive
QRELSNMVVISLVQAMLWFR	amyloid nucleation score	inactive
GSLPFLSYLGRVKCGERRSS	amyloid nucleation score	inactive
RTSVDQLEMKMRFSMSFGWL	amyloid nucleation score	0.449
SKCIKLFNFNVSCFQTSSLL	amyloid nucleation score	2.29

Provide each entry's amyloid nucleation score from the list below.
1. SMFRSRFLKVRDVSTTSQCA
2. TKCVLNGRRLSLCPLDNSMR
3. DYVFPRVYRGS

Response line:
1. inactive
2. inactive
3. inactive
